- assayed-target: PKR(R510Q) (Homo sapiens, UniProt P30613, R510Q)
- Sequence (P30613 whole entry R510Q): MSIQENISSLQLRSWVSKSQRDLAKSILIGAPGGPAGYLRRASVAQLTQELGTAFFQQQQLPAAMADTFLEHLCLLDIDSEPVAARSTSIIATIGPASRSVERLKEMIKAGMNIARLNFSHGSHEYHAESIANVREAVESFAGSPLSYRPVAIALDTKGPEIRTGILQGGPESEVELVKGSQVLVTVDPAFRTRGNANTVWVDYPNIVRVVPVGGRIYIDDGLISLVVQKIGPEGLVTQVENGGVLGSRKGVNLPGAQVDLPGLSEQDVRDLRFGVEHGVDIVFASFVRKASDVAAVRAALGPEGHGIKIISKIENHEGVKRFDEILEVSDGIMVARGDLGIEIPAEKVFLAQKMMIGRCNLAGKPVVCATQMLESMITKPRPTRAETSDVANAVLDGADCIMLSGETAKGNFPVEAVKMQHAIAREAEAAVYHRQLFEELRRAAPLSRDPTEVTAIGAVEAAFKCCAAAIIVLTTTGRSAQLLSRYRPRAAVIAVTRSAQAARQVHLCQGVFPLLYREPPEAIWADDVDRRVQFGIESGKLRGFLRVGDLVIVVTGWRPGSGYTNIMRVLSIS
- measurement-protocol: Luminescence Assay Protocol (Kinase Glo Plus), PKR(R510Q/without FBP)
- Type: biochemical
- measurement-conditions: PKRR510Q, without FBP, gmean; read-out: D - AC50 LUM KGP woFBP AC50 μM gmean
attribute-measured: AC50

[[record]]
compound = "CC(C)(CO)C(=O)N1CC2=C(C1)CN(S(=O)(=O)c1ccc3ncsc3c1)C2 [Example 19]"
assayed_target = "PKR(R510Q) (Homo sapiens, UniProt P30613, R510Q)"
attribute_measured = "AC50"
result = "0.1 to 1 µM"

[[record]]
compound = "CC1(C)CNc2cc(S(=O)(=O)N3CC4=C(CN(C(=O)[C@H](CO)c5ccccc5)C4)C3)ccc2O1 [Example 32]"
assayed_target = "PKR(R510Q) (Homo sapiens, UniProt P30613, R510Q)"
attribute_measured = "AC50"
result = "≤ 0.1 µM"

[[record]]
compound = "O=C([C@H](CO)c1ccccc1)N1CC2=C(C1)CN(S(=O)(=O)c1cccnc1)C2 [Example 50]"
assayed_target = "PKR(R510Q) (Homo sapiens, UniProt P30613, R510Q)"
attribute_measured = "AC50"
result = "0.1 to 1 µM"

[[record]]
compound = "O=C([C@H](CO)c1ccccc1)N1CC2=C(C1)CN(S(=O)(=O)c1ccccn1)C2 [Example 51]"
assayed_target = "PKR(R510Q) (Homo sapiens, UniProt P30613, R510Q)"
attribute_measured = "AC50"
result = "≤ 0.1 µM"

[[record]]
compound = "O=C(C1CCCOC1)N1CC2=C(C1)CN(S(=O)(=O)c1cnc3c(c1)OCCO3)C2 (single isomer, unassigned) [Example 5]"
assayed_target = "PKR(R510Q) (Homo sapiens, UniProt P30613, R510Q)"
attribute_measured = "AC50"
result = "1 to 40 µM"

[[record]]
compound = "COCCC(=O)N1CC2=C(C1)CN(S(=O)(=O)c1ccc3c(c1)OCCO3)C2 [Example 57]"
assayed_target = "PKR(R510Q) (Homo sapiens, UniProt P30613, R510Q)"
attribute_measured = "AC50"
result = "0.1 to 1 µM"

[[record]]
compound = "COCCC(=O)N1CC2=C(C1)CN(S(=O)(=O)c1ccc3occc3c1)C2 [Example 58]"
assayed_target = "PKR(R510Q) (Homo sapiens, UniProt P30613, R510Q)"
attribute_measured = "AC50"
result = "0.1 to 1 µM"

[[record]]
compound = "O=C(C1CCCOC1)N1CC2=C(C1)CN(S(=O)(=O)c1ccc3c(c1)NCCO3)C2 (single isomer, unassigned) [Example 34]"
assayed_target = "PKR(R510Q) (Homo sapiens, UniProt P30613, R510Q)"
attribute_measured = "AC50"
result = "≤ 0.1 µM"

[[record]]
compound = "O=C([C@H](CO)c1ccccc1)N1CC2=C(C1)CN(S(=O)(=O)c1ccc(C(F)(F)F)nc1)C2 [Example 52]"
assayed_target = "PKR(R510Q) (Homo sapiens, UniProt P30613, R510Q)"
attribute_measured = "AC50"
result = "1 to 40 µM"

[[record]]
compound = "O=C([C@@H]1CCOC1)N1CC2=C(C1)CN(S(=O)(=O)c1ccc(OC(F)F)cc1)C2 [Example 14]"
assayed_target = "PKR(R510Q) (Homo sapiens, UniProt P30613, R510Q)"
attribute_measured = "AC50"
result = "1 to 40 µM"

[[record]]
compound = "O=C(C(CO)c1ccccn1)N1CC2=C(C1)CN(S(=O)(=O)c1cnc3c(c1)OCCO3)C2 (single isomer, unassigned) [Example 3]"
assayed_target = "PKR(R510Q) (Homo sapiens, UniProt P30613, R510Q)"
attribute_measured = "AC50"
result = "0.1 to 1 µM"

[[record]]
compound = "O=C(C1COCCN1)N1CC2=C(C1)CN(S(=O)(=O)c1ccc3ncsc3c1)C2 (stereo not drawn) [Example 56]"
assayed_target = "PKR(R510Q) (Homo sapiens, UniProt P30613, R510Q)"
attribute_measured = "AC50"
result = "1 to 40 µM"

[[record]]
compound = "CC(C)(O)[C@@H](C(=O)N1CC2=C(C1)CN(S(=O)(=O)c1ccc(OC(F)F)cc1)C2)c1ccccc1 [Example 28]"
assayed_target = "PKR(R510Q) (Homo sapiens, UniProt P30613, R510Q)"
attribute_measured = "AC50"
result = "1 to 40 µM"

[[record]]
compound = "CN1CCOc2ccc(S(=O)(=O)N3CC4=C(CN(C(=O)C(CO)c5ccccc5)C4)C3)cc21 (stereo not drawn) [Example 46]"
assayed_target = "PKR(R510Q) (Homo sapiens, UniProt P30613, R510Q)"
attribute_measured = "AC50"
result = "> 40 µM"

[[record]]
compound = "COc1ccc(S(=O)(=O)N2CC3=C(CN(C(=O)CCO)C3)C2)cc1 [Example 40]"
assayed_target = "PKR(R510Q) (Homo sapiens, UniProt P30613, R510Q)"
attribute_measured = "AC50"
result = "1 to 40 µM"

